Assayed system: G-protein coupled receptor 55 (Homo sapiens) (UniProt Q9Y2T6)
Sequence (Q9Y2T6 whole entry, looked up): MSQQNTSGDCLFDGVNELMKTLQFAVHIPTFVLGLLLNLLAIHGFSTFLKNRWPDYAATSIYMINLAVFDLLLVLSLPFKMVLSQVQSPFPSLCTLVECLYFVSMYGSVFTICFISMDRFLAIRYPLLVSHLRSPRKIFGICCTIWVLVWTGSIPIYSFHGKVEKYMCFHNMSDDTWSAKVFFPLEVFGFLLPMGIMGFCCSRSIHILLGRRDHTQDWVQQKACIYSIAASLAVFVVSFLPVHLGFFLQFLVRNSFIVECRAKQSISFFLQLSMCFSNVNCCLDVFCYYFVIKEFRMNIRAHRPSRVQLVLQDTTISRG
Measurement description: GPR55 antagonists blocking LPI-driven arrestin recruitment, primary screen, imaging, U2OS, beta-arrestin-GFP, LPI agonist (AID 2013);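 note: U2OS cells stably carrying GPR55 and arrestin-GFP stimulated by 5 µM LPI near EC80; imaged beta-arrestin-GFP aggregate spots per cell after agonist stimulation; plate controls were LPI-stimulated DMSO wells for no effect and DMSO wells without LPI for full effect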
Recorded conditions: U2OS GPR55 beta-arrestin-GFP translocation imaging, LPI antagonism; at 10 µM; active compounds read high
The campaign covered roughly 290,000 compounds. About 370 (0.13%) were called active. The sample as a whole holds a higher share of actives than the screen did. Entries with a potency or affinity are not part of this list.
Quick reference for inhibition among some compounds
Give the number; % is assumed, so skip it.

Compound | Reported result
COc1cc(S(=O)(=O)NC2CCCC2)c(OC)cc1Cl | -2.6

stdin: Notebook entry, G-protein coupled receptor 55 (Homo sapiens) (UniProt Q9Y2T6) assay: inhibition of `CCn1c(=N)c(C(=O)OC)cc2c(=O)n3ccccc3nc21` = ?
stdout: -3.4

stdin: Notebook entry, G-protein coupled receptor 55 (Homo sapiens) (UniProt Q9Y2T6) assay: inhibition of `CCn1ncc(C(=O)Nc2cccc(Cl)c2)c1C` = ?
stdout: 3.9

* * *

Assayed system: G-protein coupled receptor 55 (Homo sapiens) (UniProt Q9Y2T6)
Measurement description: GPR55 antagonists blocking LPI-driven arrestin recruitment, primary screen, imaging, U2OS, beta-arrestin-GFP, LPI agonist (AID 2013)
Recorded conditions: U2OS GPR55 beta-arrestin-GFP translocation imaging, LPI antagonism; at 10 µM
Out of some 290,000 compounds screened, about 370 (0.13%) were called active.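 Rule for the calls: active = spots per cell inhibited over 60%, with over 100 cells counted and total cytoplasm intensity under 500,000; inconclusive = wells with under 100 cells, flagged as likely toxic; inactive = the rest.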 The entries come from a sample that favours actives as a whole. Entries with a potency or affinity are not part of this list.
Hi there, use one of these labels in your reply, thanks! active, inactive

Here's what some known entries look like.
Molecule | Discrete label
COc1cc(S(=O)(=O)N2CCC(C(N)=O)CC2)c(C)cc1C | inactive
CCOC(=O)C1=C(C)NC(=O)NC1c1ccccc1Cl (stereo not drawn) | inactive
O=C1C(=O)c2ccc(-c3ccccc3)cc2-c2ccccc21 | inactive
COC(=O)C1=C(C)NC(=O)CC1c1cccc(Cl)c1Cl (stereo not drawn) | inactive
Cn1c(C(=O)N[C@@H](Cc2ccccc2)C(=O)NCCC(=O)O)cc2cc(Cl)ccc21 | inactive
CCCn1c2c(c(O)c(C(=O)Nc3ncccc3O)c1=O)CCCC2 | inactive
CCOC(=O)c1c(N)sc(N)c1C(=O)OCC | inactive
O=C(N/N=C/c1cccc([N+](=O)[O-])c1)c1cc(-c2ccc3c4c(cccc24)CC3)n[nH]1 | inactive

stdin: For this molecule, state the assay outcome: O=C(O)C1C(C(=O)O)C1(c1ccccc1)c1ccccc1 (stereo not drawn)
stdout: inactive

stdin: For this molecule, state the assay outcome: `CN(C)c1ccc(/C=C/c2ccc3ccccc3[n+]2C)cc1`
stdout: inactive

stdin: For this molecule, state the assay outcome: `Cn1c(=O)c(C(=O)NCCc2ccccc2)c(O)c2ccccc21`
stdout: inactive

stdin: For this molecule, state the assay outcome: `CC[n+]1c(/C=C/c2ccc(N(C)C)cc2)ccc2ccccc21`
stdout: inactive

stdin: For this molecule, state the assay outcome: `N#Cc1cccc(NC(=O)COC(=O)c2ccc3c(=O)n4c(nc3c2)CCC4)c1`
stdout: inactive

stdin: For this molecule, state the assay outcome: CC(=O)C1=C(C)NC(SCC(=O)c2ccc(C)cc2)=C(C#N)C1c1ccco1 (stereo not drawn)
stdout: active

stdin: For this molecule, state the assay outcome: CCOc1ccc(N(C)S(=O)(=O)c2ccc3[nH]cc(C(=O)NCC4CCCO4)c(=O)c3c2)cc1 (stereo not drawn)
stdout: inactive

* * *

Assayed system: G-protein coupled receptor 55 (Homo sapiens)
Measurement description: GPR55 antagonists blocking LPI-driven arrestin recruitment, primary screen, imaging, U2OS, beta-arrestin-GFP, LPI agonist (AID 2013);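 note: U2OS cells stably carrying GPR55 and arrestin-GFP stimulated by 5 µM LPI near EC80; imaged beta-arrestin-GFP aggregate spots per cell after agonist stimulation; plate controls were LPI-stimulated DMSO wells for no effect and DMSO wells without LPI for full effect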
Recorded conditions: U2OS GPR55 beta-arrestin-GFP translocation imaging, LPI antagonism; at 10 µM; active compounds read high
The campaign covered roughly 290,000 compounds. About 370 (0.13%) were called active. The sample holds actives, similar compounds and a random draw of the others, so the mix is not that of the screen. Results with a measured potency or affinity are listed apart.
Measured metric: inhibition (%)
Give the number; % is assumed, so skip it.

Here's what some known entries look like.
Molecule | U | inhibition
Cc1ccc(Cn2cc(SCC(=O)Nc3nccs3)c3ccccc32)cc1 | % | 2.5
Cc1c(N/C(=N/S(=O)(=O)c2ccc(Cl)cc2)c2ccccc2)c(=O)n(-c2ccccc2)n1C | % | -4.8
CCOC(=O)c1cc(C#N)c(Oc2ccccc2OC)nc1-c1ccccc1 | % | 18.2
CC(NC(=O)Cn1nc(C(=O)O)c2ccccc2c1=O)C12CC3CC(CC(C3)C1)C2 (centres undefined) | % | -2.7
CCOC(=O)c1cc(C#N)c(SC)nc1-c1ccccc1 | % | 18
CCOC(=O)N1CCN(Cc2nc3c(c(=O)n(C)c(=O)n3C)n2CCC(C)C)CC1 | % | -1.3

stdin: Notebook entry, G-protein coupled receptor 55 (Homo sapiens) assay: inhibition of `C/C(CC(=O)N1CCN(C=O)CC1)=N\NC(=O)c1cc2ccccc2cc1O` = ?
stdout: 5.8

stdin: Notebook entry, G-protein coupled receptor 55 (Homo sapiens) assay: inhibition of `CC(=O)N1CCOc2ccc(S(=O)(=O)Nc3ccc(Cl)cn3)cc21` = ?
stdout: -3.3

stdin: Notebook entry, G-protein coupled receptor 55 (Homo sapiens) assay: inhibition of O=C(CCc1ccccc1Cl)NC1CCCN(c2ccc(C(F)(F)F)cn2)C1 (centres undefined) = ?
stdout: 5

stdin: Notebook entry, G-protein coupled receptor 55 (Homo sapiens) assay: inhibition of CC(c1ccccc1C(O)(c1ccccc1)c1ccccc1)N(C)C (centres undefined) = ?
stdout: 6.4

stdin: Notebook entry, G-protein coupled receptor 55 (Homo sapiens) assay: inhibition of CCOc1ccc(CCNC(=O)c2ccc(CS(=O)Cc3ccc(Cl)cc3)o2)cc1OCC (centres undefined) = ?
stdout: 13.4

stdin: Notebook entry, G-protein coupled receptor 55 (Homo sapiens) assay: inhibition of `S=C(Nc1cccc(Cl)c1)Nc1ccccc1Oc1ccccc1` = ?
stdout: 8.7

stdin: Notebook entry, G-protein coupled receptor 55 (Homo sapiens) assay: inhibition of `CC(C)(C)c1ccc(CN2C(=O)CSC2=O)cc1` = ?
stdout: -2.7

stdin: Notebook entry, G-protein coupled receptor 55 (Homo sapiens) assay: inhibition of `Cc1ccc(OC(=O)c2ccc(N3CCOCC3)c([N+](=O)[O-])c2)cc1` = ?
stdout: 2.8

* * *

Assayed system: G-protein coupled receptor 55 (Homo sapiens) (UniProt Q9Y2T6)
Measurement description: GPR55 antagonists blocking LPI-driven arrestin recruitment, primary screen, imaging, U2OS, beta-arrestin-GFP, LPI agonist (AID 2013);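 note: U2OS cells stably carrying GPR55 and arrestin-GFP stimulated by 5 µM LPI near EC80; imaged beta-arrestin-GFP aggregate spots per cell after agonist stimulation; plate controls were LPI-stimulated DMSO wells for no effect and DMSO wells without LPI for full effect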
Recorded conditions: U2OS GPR55 beta-arrestin-GFP translocation imaging, LPI antagonism; at 10 µM; active compounds read high
Out of some 290,000 compounds screened, about 370 (0.13%) were called active. This excerpt belongs to a sample that is enriched for actives. Entries with a potency or affinity are not part of this list.
Measured metric: inhibition (%)
Give the number; % is assumed, so skip it.

Molecule | inhibition / %
N#Cc1c(N)nc2c(c1-c1cccc(O)c1)CCCCCC2 | 76
COc1ccc(C2c3ccc(O)cc3Oc3ncn(CCCO)c(=N)c32)cc1 (stereo not given) | 22
CCOC(=O)c1c(CN(C)C)n(-c2ccccc2)c2cc(Br)c(O)cc12 | 3.4
CCCCn1c(NC(=O)c2ccccc2)c(C#N)c2nc3ccccc3nc21 | -12.6
CCCn1c(SCc2nc3sc(C)c(C)c3c(=O)[nH]2)nc2ccccc2c1=O | 8.6

stdin: Value lookup for inhibition; key = `COc1ccccc1CNC(=O)C1CCN(S(=O)(=O)c2ccc(-n3cnnn3)cc2)CC1`
stdout: 1

stdin: Value lookup for inhibition; key = `COc1cc(C(=O)N2CCN(C(=O)c3cccc4ccccc34)CC2)cc(OC)c1OC`
stdout: 4.5

stdin: Value lookup for inhibition; key = `CCOC(=O)c1c(CN2CCOCC2)n(-c2ccccc2)c2cc(Br)c(OC)cc12`
stdout: 23.1

* * *

Assayed system: G-protein coupled receptor 55 (Homo sapiens)
Measurement description: GPR55 antagonists blocking LPI-driven arrestin recruitment, primary screen, imaging, U2OS, beta-arrestin-GFP, LPI agonist (AID 2013);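 note: U2OS cells stably carrying GPR55 and arrestin-GFP stimulated by 5 µM LPI near EC80; imaged beta-arrestin-GFP aggregate spots per cell after agonist stimulation; plate controls were LPI-stimulated DMSO wells for no effect and DMSO wells without LPI for full effect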
Recorded conditions: U2OS GPR55 beta-arrestin-GFP translocation imaging, LPI antagonism; at 10 µM; active compounds read high
Out of some 290,000 compounds screened, about 370 (0.13%) were called active. Many of the other results were omitted from the sample, so actives are more common in it than they were. Results with a measured potency or affinity are listed apart.
Measured metric: inhibition

Compound | inhibition
COc1ccc(C(=O)NCC(=O)N2CCC3(CC2)NCCc2[nH]cnc23)cc1 | -11.2% (inactive)
CN(CC(=O)Nc1ccccc1Oc1ccccc1)Cc1ccccc1F | 80.5% (active)
O=S(=O)(c1ccc(F)cc1)N1CCCc2ccccc21 | 93.9% (active)
CN(CC(=O)Nc1cccc(F)c1)CC(=O)Nc1ccccc1Oc1ccccc1 | 2.5% (inactive)
Clc1ccc(-c2nnnn2-c2ccc(Cl)cc2)cc1 | 7.1% (inactive)

stdin: Value lookup for inhibition; key = `COc1cc(-c2nn3c(-c4ccccc4)nnc3s2)cc(OC)c1OC`
stdout: -5.2% (inactive)

stdin: Value lookup for inhibition; key = `O=S(=O)(c1ccc(F)cc1)N1CCc2ccccc21`
stdout: 9.6% (inactive)

stdin: Value lookup for inhibition; key = `O=C(NC1CCN(S(=O)(=O)c2ccccc2F)CC1)c1cccnc1`
stdout: -8.1% (inactive)

stdin: Value lookup for inhibition; key = `CN(c1ccc(C(=O)NCCSCc2ccccc2)cc1)S(=O)(=O)c1ccccc1`
stdout: -5.5% (inactive)

stdin: Value lookup for inhibition; key = `CC(C)CC(=O)Nc1ccccc1Oc1ccccc1`
stdout: -0.5% (inactive)

stdin: Value lookup for inhibition; key = `O=C(Nc1nnc(-c2ccccc2)o1)c1cc(Cl)sc1Cl`
stdout: -2.3% (inactive)

stdin: Value lookup for inhibition; key = `C=CC(=O)NCCCc1cc(C(C)(C)C)c(O)c(C(C)(C)C)c1`
stdout: 8.3% (inactive)

stdin: Value lookup for inhibition; key = `CNC(=S)N(CCc1c(C)[nH]c2ccc(Cl)cc12)Cc1cccs1`
stdout: 79.7% (active)

stdin: Value lookup for inhibition; key = Cc1[nH]nc2c1/C(=N/O)CC(c1ccccc1)C2 (centres undefined)
stdout: -5.5% (inactive)
